test system: Saccharomyces cerevisiae; experiment: protein stability index of tFT-peptide fusion (C-terminal peptide) (PSI (0-1 scale)); higher = more stable (slower turnover); details: genetic background: das1 deletion; temperature: 30 C;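 further: PSI is a weighted mean of sequencing reads over stability bins, variants kept only with over 10 reads, mCherry proximal and sfGFP distal, peptide attached via GGGS linker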
VALUE TYPE: protein stability index

VDGVSFFVVLLC ... 0.343
GGSWVRCLRTMG ... 0.614
FLFSVVFFFFSL ... 0.353
TLFSPPVLATPS ... 0.528
CVISLVTAVRLF ... 0.453
YILLRWVNLSCL ... 0.488
FCVVFFLSLVFL ... 0.391
GGCYAGVAMRLI ... 0.644
LCVVVICCLMAR ... 0.123
LFPVFFPLFAPA ... 0.266
AGESLRAIAVLY ... 0.588
LCFFLAFSFVFF ... 0.231
GLFLLWWLGWLV ... 0.468
LFSVLVFIYFVM ... 0.169
FFCRWGSTVTLL ... 0.557
VGAVGVCILFVW ... 0.242
VVCLCEYRLHIF ... 0.214
ALLIYFLCRCIP ... 0.343
VCCSSVSLLVFA ... 0.267
